Source: patent US20210355194A1

# Study system: ACE2 (human, UniProt Q9BYF1 18-740)
# Sequence (Q9BYF1 18-740 limits assumed): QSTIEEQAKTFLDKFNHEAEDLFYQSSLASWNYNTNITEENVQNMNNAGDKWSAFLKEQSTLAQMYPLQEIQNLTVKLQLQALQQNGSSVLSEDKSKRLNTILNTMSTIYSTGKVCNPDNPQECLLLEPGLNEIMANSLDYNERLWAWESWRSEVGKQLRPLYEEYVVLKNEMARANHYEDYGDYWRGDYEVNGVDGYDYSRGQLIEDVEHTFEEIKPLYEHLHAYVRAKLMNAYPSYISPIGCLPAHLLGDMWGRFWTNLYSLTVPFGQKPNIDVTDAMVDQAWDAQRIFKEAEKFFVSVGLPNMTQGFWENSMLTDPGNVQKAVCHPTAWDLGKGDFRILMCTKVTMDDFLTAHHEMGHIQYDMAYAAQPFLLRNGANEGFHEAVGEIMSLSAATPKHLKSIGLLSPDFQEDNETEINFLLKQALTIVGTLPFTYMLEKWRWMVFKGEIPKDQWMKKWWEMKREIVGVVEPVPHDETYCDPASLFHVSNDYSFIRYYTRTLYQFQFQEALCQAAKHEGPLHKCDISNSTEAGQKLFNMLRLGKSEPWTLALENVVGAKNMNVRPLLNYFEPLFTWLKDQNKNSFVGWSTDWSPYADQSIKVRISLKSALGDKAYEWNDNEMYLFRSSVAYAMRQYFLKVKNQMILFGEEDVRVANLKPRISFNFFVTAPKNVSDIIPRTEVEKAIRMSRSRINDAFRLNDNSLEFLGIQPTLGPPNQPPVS
Measure: koff

- ACE2 variant antibody 4-41 (VHH) VHH: EVQLVESGGGLVQPGGSLRLSCAASGRTFGDYIMGWFRQAPGKERESVAAINWSGGTTPYADSVKGRFTISADNSKNTAYLQMNSLKPEDTAVYYCATDPPLFCCHVDLWGQGTLVTVSS: 0.001 s⁻¹
- ACE2 variant antibody 4-89 (VHH) VHH: EVQLVESGGGLVQPGGSLRLSCAASGFAFGDNWIGWFRQAPGKEREWVASISSGGTTAYADNVKGRFTIIADNSKNTAYLQMNSLKPEDTAVYYCAHRGGWLRPWGYWGQGTLVTVSS: 0.000611 s⁻¹
- ACE2 variant antibody 4-62 (VHH) VHH: EVQLVESGGGLVQPGGSLRLSCAASGRTFSDDTMGWFRQAPGKEREFVAAINWSGGSTDYADSVKGRFTISADNSKNTAYLQMNSLKPEDTAVYYCATDPPLFWGQGTLVTVSS: 0.00365 s⁻¹
- ACE2 variant antibody 4-49 (VHH) VHH: EVQLVESGGGLVQPGGSLRLSCAASGRTFGDYIMGWFRQAPGKERESVAAINWSAGYTAYADSVKGRFTISADNSKNTAYLQMNSLKPEDTAVYYCARASPNTGWHFDHWGQGTLVTVSS: 0.00098 s⁻¹
- ACE2 variant antibody 3-8 (antibody, V domains shown) VH: EVQLLESGGGLVQPGGSLRLSCAASGFTFRSHAMSWVRQAPGKGLEWVSSISGGGASTYYADSVKGRFTISRDNSKNTLYLQMNSLRAEDTAVYYCARVKYLTTSSGWPRPYFDNWGQGTLVTVSS VL: DIQMTQSPSSLSASVGDRVTITCRASQSIGKYLNWYQQKPGKAPKLLIYASSTLQRGVPSRFSGSGSGTDFTLTISSLQPEDFATYYCQQSLSTPFTFGQGTKVEIK: 0.00509 s⁻¹
- ACE2 variant antibody 4-56 (VHH) VHH: EVQLVESGGGLVQPGGSLRLSCAASGFSLDYYGMGWFRQAPGKERESVAAISWNGDFTAYADSVKGRFTISADNSKNTAYLQMNSLKPEDTAVYYCAKRANPTGAYFDYWGQGTLVTVSS: 0.00237 s⁻¹
- ACE2 variant antibody 4-82 (VHH) VHH: EVQLVESGGGLVQPGGSLRLSCAASGRTFGDYAMGWFRQAPGKEREFVAAINWSGGYTRYADSVKGRFTISADNSKNTAYLQMNSLKPEDTAVYYCATDPPLFWGQGTLVTVSS: 0.00333 s⁻¹
